- System: SF-539
- assay_overview: Anticancer activity against human SF-539 cells assessed as cell growth inhibition incubated for 48 hrs by SRB assay
- Type: functional
- test_settings: read-out: LC50 (the source's name)
Quick reference: CC50 of the listed items.
All answers are understood in µM, so give the number only.

Recorded CC50, per entry:
NS(=O)(=O)c1ccc(Nc2nc(N/N=C/c3ccccn3)nc(Nc3ccccc3)n2)cc1 8
NS(=O)(=O)c1ccc(Nc2nc(N/N=C/c3ccc(C(F)(F)F)cc3)nc(Nc3ccccc3)n2)cc1 9.61

Read the next record carefully.
Enquiry: Which CC50 is reported for this compound? Cc1nn(-c2ccccc2)cc1/C=N/Nc1nc(Nc2ccccc2)nc(Nc2ccc(S(N)(=O)=O)cc2)n1
Return: 6.25
